Listing: pIC50 of selected compounds
Target: PDE4B: catalytic domain of human PDE4B from S152-S528 (Homo sapiens)
Construct: The catalytic domain of human PDE4B from S152-S528; His6 (N, cleaved yes); thrombin cleavage site (N, cleaved yes)
Sequence (Q07343 324-700): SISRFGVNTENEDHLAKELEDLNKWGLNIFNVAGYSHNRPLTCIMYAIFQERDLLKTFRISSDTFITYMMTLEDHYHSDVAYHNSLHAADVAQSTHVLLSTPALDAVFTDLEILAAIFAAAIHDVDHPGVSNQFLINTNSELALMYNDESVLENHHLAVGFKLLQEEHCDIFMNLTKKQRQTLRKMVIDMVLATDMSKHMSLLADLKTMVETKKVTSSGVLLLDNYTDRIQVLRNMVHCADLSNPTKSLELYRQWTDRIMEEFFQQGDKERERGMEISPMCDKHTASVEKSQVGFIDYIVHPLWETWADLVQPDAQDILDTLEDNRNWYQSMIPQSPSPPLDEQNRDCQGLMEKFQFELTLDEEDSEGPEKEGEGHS
Assay: PDE4 IC50 determination by Scintillation Proximity Assay (SPA), PDE4B catalytic domain
Conditions: [3H]cAMP SPA, 30 min at 30° C.
pIC50: −log10 of the molar value.

compound: COc1ccc(-c2cn(C(=O)Nc3ccc4c(c3)OCO4)c3ncccc23)cc1OC [Compound 36]
measured.on: PDE4B: catalytic domain of human PDE4B from S152-S528 (Homo sapiens)
pIC50: > 5.00
//
compound: CSc1nccc(-c2cn(S(=O)(=O)c3cccc4cccnc34)c3ncccc23)n1 [Compound 46]
measured.on: PDE4B: catalytic domain of human PDE4B from S152-S528 (Homo sapiens)
pIC50: > 5.00
//
compound: COc1ccc(CC(=O)n2cc(-c3ccc(OC)c(OC)c3)c3cccnc32)cc1 [Compound 60]
measured.on: PDE4B: catalytic domain of human PDE4B from S152-S528 (Homo sapiens)
pIC50: > 5.00
//
compound: COc1ccc(-c2cn(C(=O)Nc3cccc(C(C)=O)c3)c3ncccc23)cc1OC [Compound 34]
measured.on: PDE4B: catalytic domain of human PDE4B from S152-S528 (Homo sapiens)
pIC50: > 5.00
//
compound: COc1ccc(-c2cnc3[nH]ccc3c2)cc1OC [Compound 82]
measured.on: PDE4B: catalytic domain of human PDE4B from S152-S528 (Homo sapiens)
pIC50: > 5.00
//
compound: COc1ccc(-c2cn(Cc3c(C)ccc4ccccc34)c3ncccc23)cc1OC [Compound 76]
measured.on: PDE4B: catalytic domain of human PDE4B from S152-S528 (Homo sapiens)
pIC50: > 5.00
//
compound: COc1ccc(-c2cn(S(=O)(=O)c3ccc(C)c4ccccc34)c3ncccc23)cc1OC [Compound 12]
measured.on: PDE4B: catalytic domain of human PDE4B from S152-S528 (Homo sapiens)
pIC50: > 5.00
//
compound: COc1ccc(-c2cn(S(=O)(=O)c3ccccc3)c3ncccc23)cc1OC1CCCC1 [Compound 101]
measured.on: PDE4B: catalytic domain of human PDE4B from S152-S528 (Homo sapiens)
pIC50: > 5.00
//
compound: COc1ccc(-c2c[nH]c3ncccc23)cc1OC [Compound 1]
measured.on: PDE4B: catalytic domain of human PDE4B from S152-S528 (Homo sapiens)
pIC50: > 5.00
//
compound: COc1ccc(-c2cn(Cc3ccccc3-c3ccccc3)c3ncccc23)cc1OC [Compound 78]
measured.on: PDE4B: catalytic domain of human PDE4B from S152-S528 (Homo sapiens)
pIC50: > 5.00
